# subject_of_test: T1, human PD-L1 (human, UniProt Q9NZQ7 19-239, limits assumed)
# T1 construct: also called Hu PD-L1; hPD-L1
# assay_info: cell binding assay, inhibition of Hu PD-L1/PD-1 binding
pIC50: −log10 of the molar value. Positions of bridges follow the written chain, without caps; N, C: chain ends. Non-standard residues stand in square brackets, D forms with d. NMeNle = CCCC[C@H](NC)C(=O)O; NMeA = CN[C@@H](C)C(=O)O; Sar = CNCC(=O)O
Parameter pIC50: see the listing below.
reported_metric: pIC50

- binder: "{CH2CO}-Y[NMeA]NPHL[Sar]WSW[NMeNle][NMeNle]RCG-NH2 (thioether N-14; SMILES CCCC[C@H]1C(=O)N(C)[C@@H](CCCC)C(=O)N[C@@H](CCCNC(=N)N)C(=O)N[C@H](C(=O)NCC(N)=O)CSCC(=O)N[C@@H](Cc2ccc(O)cc2)C(=O)N(C)[C@@H](C)C(=O)N[C@@H](CC(N)=O)C(=O)N2CCC[C@H]2C(=O)N[C@@H](Cc2c[nH]cn2)C(=O)N[C@@H](CC(C)C)C(=O)N(C)CC(=O)N[C@@H](Cc2c[nH]c3ccccc23)C(=O)N[C@@H](CO)C(=O)N[C@@H](Cc2c[nH]c3ccccc23)C(=O)N1C, macrocyclic peptide, Formula I series; also called Compound 30) [Compound No. 30]"
  reported_metric: "pIC50"
  readout_number: 8.52
- binder: "{CH2CO}-F[NMeA]NPHL[Sar]ASW[NMeNle][NMeNle]RCG-NH2 (thioether N-14; SMILES CCCC[C@H]1C(=O)N(C)[C@@H](CCCC)C(=O)N[C@@H](CCCNC(=N)N)C(=O)N[C@H](C(=O)NCC(N)=O)CSCC(=O)N[C@@H](Cc2ccccc2)C(=O)N(C)[C@@H](C)C(=O)N[C@@H](CC(N)=O)C(=O)N2CCC[C@H]2C(=O)N[C@@H](Cc2c[nH]cn2)C(=O)N[C@@H](CC(C)C)C(=O)N(C)CC(=O)N[C@@H](C)C(=O)N[C@@H](CO)C(=O)N[C@@H](Cc2c[nH]c3ccccc23)C(=O)N1C, macrocyclic peptide, Formula I series; also called Compound 15) [Compound No. 15]"
  reported_metric: "pIC50"
  readout_number: 5.72
